The reported measurements were obtained from ChEMBL document CHEMBL1772969.

Test system: HepG2
Assay: Cytotoxicity against human HepG2 cells after 1 to 4 hrs by MTS assay
Assay type: cell-based
Measured IC50, listed per entry.
Quick note: give the figure in µM, leave out the unit.

| compound-structure | IC50 [µM] |
| --- | --- |
| CC[C@H]1OC(=O)[C@H](C)[C@@H](O[C@H]2C[C@@](C)(OC)[C@@H](O)[C@H](C)O2)[C@H](C)[C@@H](O[C@@H]2O[C@H](C)C[C@H](N(C)C)[C@H]2O)[C@](C)(O)C[C@@H](C)CN(CCNC(=S)NCc2ccccc2)[C@H](C)[C@@H](O)[C@]1(C)O | 14 |
| CC[C@H]1OC(=O)[C@H](C)[C@@H](O[C@H]2C[C@@](C)(OC)[C@@H](O)[C@H](C)O2)[C@H](C)[C@@H](O[C@@H]2O[C@H](C)C[C@H](N(C)C)[C@H]2O)[C@](C)(O)C[C@@H](C)CN(CCN(CCC#N)C(=O)Nc2ccc3ccccc3c2)[C@H](C)[C@@H](O)[C@]1(C)O | 11 |
| CC[C@H]1OC(=O)[C@H](C)[C@@H](O[C@H]2C[C@@](C)(OC)[C@@H](O)[C@H](C)O2)[C@H](C)[C@@H](O[C@@H]2O[C@H](C)C[C@H](N(C)C)[C@H]2O)[C@](C)(O)C[C@@H](C)CN(CCNC(=S)NCCCc2ccccc2)[C@H](C)[C@@H](O)[C@]1(C)O | 8 |
| CC[C@H]1OC(=O)[C@H](C)[C@@H](O[C@H]2C[C@@](C)(OC)[C@@H](O)[C@H](C)O2)[C@H](C)[C@@H](O[C@@H]2O[C@H](C)C[C@H](N(C)C)[C@H]2O)[C@](C)(O)C[C@@H](C)CN(CCCNC(=S)NCCCc2ccccc2)[C@H](C)[C@@H](O)[C@]1(C)O | 22 |

Request: Name the recorded IC50 for `CC[C@H]1OC(=O)[C@H](C)[C@@H](O[C@H]2C[C@@](C)(OC)[C@@H](O)[C@H](C)O2)[C@H](C)[C@@H](O[C@@H]2O[C@H](C)C[C@H](N(C)C)[C@H]2O)[C@](C)(O)C[C@@H](C)CN(CCCNC(=S)Nc2cccc3ccccc23)[C@H](C)[C@@H](O)[C@]1(C)O` .
Response: 48
